# Test system: E. coli TESEC Mtb Asd
# PROTOCOL_SUMMARY: growth (OD600 after 10 h); higher = more growth (less inhibition)
# RUN_PARAMETERS: arabinose induction (level): Low; compound 0.1 mM; raw OD600 reference: median of DMSO wells 0.417, cell-free background 0.041
Counter-ions that a name gives are not always drawn.
Readings of growth for the listed molecules
Could you keep your reply to the number by itself?

In the examples that follow, each entry is paired with its recorded growth.
MOLECULE	MEASURED_ON	growth
Clc1ccc(COC(Cn2ccnc2)c2ccc(Cl)cc2Cl)cc1 (centres undefined) [Econazole nitrate]	E. coli TESEC Mtb Asd	0.0469
O=C(O)c1cn(C2CC2)c2cc(N3CCNCC3)c(F)cc2c1=O [Ciprofloxacin hydrochloride monohydrate]	E. coli TESEC Mtb Asd	0.0498
O=C(O)[C@H]1/C(=C/CO)O[C@@H]2CC(=O)N21 [Clavulanate potassium salt]	E. coli TESEC Mtb Asd	0.387

We next turn to a different molecule, shown below.
So for C[C@H]1NC(=O)NC1=O [Methylhydantoin-5-(D)] , the logged growth turned out to be 0.467

* * *

# System: E. coli TESEC Mtb Alr
# PROTOCOL_SUMMARY: growth (OD600 after 10 h); higher = more growth (less inhibition)
# RUN_PARAMETERS: arabinose 100000 nM; compound 0.1 mM; raw OD600 reference: median of DMSO wells 0.201, cell-free background 0.041
OBSERVATION_TYPE: growth
The answer should be written as a number, with no unit following it.

// worked examples, growth included
COMPOUND	growth
Clc1ccc(C(Cn2ccnc2)OCc2ccsc2Cl)c(Cl)c1 (centres undefined)	0.0417
COc1ccc(C(=O)c2ccccc2)c(O)c1	0.151
CC(=O)O[C@@]12CO[C@@H]1C[C@H](O)[C@@]1(C)C(=O)[C@H](O)C3=C(C)[C@@H](OC(=O)[C@H](O)[C@@H](NC(=O)OC(C)(C)C)c4ccccc4)C[C@@](O)([C@@H](OC(=O)c4ccccc4)[C@H]21)C3(C)C	0.311

Consider now this further compound.
Fill in: E. coli TESEC Mtb Alr growth for CC(C)(S)C(N)C(=O)O (racemic) = 0.187

* * *

# System: E. coli TESEC Mtb DapB
# PROTOCOL_SUMMARY: growth (OD600 after 10 h); higher = more growth (less inhibition)
# RUN_PARAMETERS: arabinose induction (level): Low; compound 0.1 mM; raw OD600 reference: median of DMSO wells 0.227, cell-free background 0.041
Structures can show the parent of a compound that is named as a salt.
OBSERVATION_TYPE: growth
API doc: respond with a numeric literal and nothing else, no unit.

COMPOUND	MEASURED_ON	growth
CC(C)(C(=O)O)c1ccc(C(O)CCCN2CCC(C(O)(c3ccccc3)c3ccccc3)CC2)cc1 (configuration not stated) [Fexofenadine HCl]	E. coli TESEC Mtb DapB	0.266

The recorded growth for CCN[C@H]1CN(CCCOC)S(=O)(=O)c2sc(S(N)(=O)=O)cc21 [Brinzolamide] is 0.215

// field: growth; key: COc1cc(C(=O)OCCCN2CCCN(CCCOC(=O)c3cc(OC)c(OC)c(OC)c3)CC2)cc(OC)c1OC [Dilazep dihydrochloride] ; value = 0.211

Data credit: the supplement of paper PMC9262897
